Data provenance is paper PMC9455983.

Provide the reported pKi of each item.
# assay-system: delta-opioid receptor (DOR) (Rattus norvegicus)
# Construct: Rat cortices were homogenized using 50 mM Tris, pH 7.4, 10 mM MgCl2-6H2O, 200 µM PMSF; from tissue; host or cells: rat cortex membranes
# Sequence (P33533 whole entry): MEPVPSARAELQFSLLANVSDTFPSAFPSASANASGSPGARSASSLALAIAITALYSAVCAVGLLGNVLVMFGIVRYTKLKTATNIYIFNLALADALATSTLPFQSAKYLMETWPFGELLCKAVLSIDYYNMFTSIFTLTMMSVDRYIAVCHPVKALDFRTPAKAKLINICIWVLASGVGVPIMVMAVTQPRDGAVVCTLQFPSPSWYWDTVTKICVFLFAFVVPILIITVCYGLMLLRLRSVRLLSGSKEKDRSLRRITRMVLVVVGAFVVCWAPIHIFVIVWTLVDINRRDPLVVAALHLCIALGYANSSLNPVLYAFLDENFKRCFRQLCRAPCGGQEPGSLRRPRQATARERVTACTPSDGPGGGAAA
# protocol-details: DOR radioligand competition binding assay ([3H]-DPDPE)
# condition-label: Delta screening results, mean of both Ki; unit inferred; read-out: MEAN (Ki)
# Protocol: DOR binding assay: Rat cortices were homogenized using 50 mM Tris, pH 7.4, 10 mM MgCl2-6H2O, 200 µM PMSF, centrifuged and incubated as above. Each assay tube contained 2 nM [^3H]-DPDPE. Assay tubes were incubated for 2.5 h at 25 °C. […] All three binding assays were terminated by filtration through GF/B filters, soaked in 5 mg/mL bovine serum albumin, 50 mM Tris, pH 7.4, on a Tomtec Mach II Harvester 96. […] Bound radioactivity was counted on a Wallac Betaplate Liquid Scintillation Counter. […]
Numbers only, as −log10 of the molar value.

| compound | pKi |
| --- | --- |
| CC(C)C[C@@H](CN1C(=N)NC[C@@H]1C)N1C[C@H](Cc2ccc(O)cc2)NC1=N [1968-42] | 4.25 |
| Cc1cc(O)cc(C)c1C[C@@H](CN1C(=N)NC[C@@H]1C)N1C[C@H](CC(C)C)NC1=N [1968-19] | 5.96 |
| N=C1NC[C@H](Cc2ccccc2)N1C[C@H](Cc1ccc(O)cc1)N1C[C@H](Cc2ccccc2)NC1=N [1968-5] | 5.03 |
| Cc1cc(O)cc(C)c1C[C@H]1CNC(=N)N1C[C@H](Cc1c(C)cc(O)cc1C)N1C[C@H](Cc2ccccc2)NC1=N [1968-61] | 5.99 |
| N=C1NC[C@H](Cc2ccccc2)N1C[C@H](Cc1ccc(O)cc1)N1C[C@H](Cc2ccc(O)cc2)NC1=N [1968-6] | 5.30 |

Take each entry in turn and give its pKi.
1. Cc1cc(O)cc(C)c1C[C@H]1CN([C@@H](CC(C)C)CN2C(=N)NC[C@@H]2Cc2ccc(O)cc2)C(=N)N1 [1968-28]
2. Cc1cc(O)cc(C)c1C[C@H]1CN([C@@H](Cc2c(C)cc(O)cc2C)CN2C(=N)NC[C@@H]2Cc2ccc(O)cc2)C(=N)N1 [1968-32]

1. 5.29
2. 6.31

Take each entry in turn and give its pKi.
1. Cc1cc(O)cc(C)c1C[C@H]1CNC(=N)N1C[C@H](Cc1ccc(O)cc1)N1C[C@H](CC(C)C)NC1=N [1968-71]
2. Cc1cc(O)cc(C)c1C[C@H]1CN([C@@H](CC(C)C)CN2C(=N)NC[C@@H]2Cc2ccccc2)C(=N)N1 [1968-12]

5.46
5.73

Take each entry in turn and give its pKi.
1. C[C@H]1CNC(=N)N1C[C@H](Cc1ccc(O)cc1)N1C[C@H](Cc2ccc(O)cc2)NC1=N [1968-38]
2. C[C@H]1CNC(=N)N1C[C@H](Cc1ccc(O)cc1)N1C[C@H](Cc2ccccc2)NC1=N [1968-37]
3. Cc1cc(O)cc(C)c1C[C@@H](CN1C(=N)NC[C@@H]1Cc1ccc(O)cc1)N1C[C@H](Cc2ccccc2)NC1=N [1968-29]
4. CC(C)C[C@H]1CN([C@@H](Cc2ccc(O)cc2)CN2C(=N)NC[C@@H]2C)C(=N)N1 [1968-39]
5. CC(C)C[C@H]1CN([C@@H](Cc2ccccc2)CN2C(=N)NC[C@@H]2Cc2ccc(O)cc2)C(=N)N1 [1968-69]

1: 5.42; 2: 5.44; 3: 6.08; 4: 5.42; 5: 5.33

// returns reported pKi for input Cc1cc(O)cc(C)c1C[C@H]1CNC(=N)N1C[C@H](CC(C)C)N1C[C@H](Cc2ccccc2)NC1=N [1968-57]
5.91
